system.name: FGFR1 (UniProt P11362)
Sequence (P11362 whole entry, looked up): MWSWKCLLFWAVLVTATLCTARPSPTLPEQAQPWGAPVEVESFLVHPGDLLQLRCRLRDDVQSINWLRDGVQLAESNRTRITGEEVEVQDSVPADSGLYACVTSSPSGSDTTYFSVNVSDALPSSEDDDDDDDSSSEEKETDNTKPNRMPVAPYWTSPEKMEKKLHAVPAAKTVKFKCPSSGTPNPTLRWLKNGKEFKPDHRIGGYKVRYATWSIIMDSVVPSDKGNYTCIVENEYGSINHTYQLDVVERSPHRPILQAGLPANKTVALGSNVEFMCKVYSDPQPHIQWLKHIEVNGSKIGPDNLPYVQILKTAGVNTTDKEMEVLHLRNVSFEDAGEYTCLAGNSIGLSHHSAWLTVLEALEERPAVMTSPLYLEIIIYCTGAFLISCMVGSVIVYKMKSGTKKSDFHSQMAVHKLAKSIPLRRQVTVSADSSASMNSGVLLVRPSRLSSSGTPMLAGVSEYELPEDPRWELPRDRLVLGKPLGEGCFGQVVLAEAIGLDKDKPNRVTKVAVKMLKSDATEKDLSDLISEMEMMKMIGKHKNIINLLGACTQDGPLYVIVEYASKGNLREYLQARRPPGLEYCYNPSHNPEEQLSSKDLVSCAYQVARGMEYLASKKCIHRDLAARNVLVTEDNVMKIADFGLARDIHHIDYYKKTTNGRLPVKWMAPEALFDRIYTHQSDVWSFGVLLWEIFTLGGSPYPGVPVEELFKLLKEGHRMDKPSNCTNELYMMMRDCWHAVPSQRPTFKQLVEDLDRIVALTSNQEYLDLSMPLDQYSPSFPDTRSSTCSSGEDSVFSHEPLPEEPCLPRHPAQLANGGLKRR
assay: phosphorylation enrichment, bacterial display (enrichment ratio); higher = better substrate or ligand; peptides without Tyr show the background;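 further: 11-residue human phosphosite peptides and single-mutation variants displayed on the E. coli surface, counted by deep sequencing, each peptide's frequency after selection divided by its frequency in the unselected input library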;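 further: frequency after pTyr selection over input frequency; kinase dosed for 20-30% of maximal phosphorylation in three min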
This listing pairs sequences with measured phosphorylation enrichment.
Answer as a number with no unit attached.

Worked examples follow.
{"record.sequence": "RLNWIYFKDQT [RS1_Y165_YF]", "property": "phosphorylation enrichment", "assay.result": 1.17}
{"record.sequence": "RVKTPYSLKRW [BMPR2_Y979]", "property": "phosphorylation enrichment", "assay.result": 0.666}
{"record.sequence": "DHKRQYELLKL [KIF4B_Y684_R680H]", "property": "phosphorylation enrichment", "assay.result": 0.342}
{"record.sequence": "RDVEQYVNNVN [PCDH19_Y1097_L1094V]", "property": "phosphorylation enrichment", "assay.result": 0.544}
{"record.sequence": "LEPHIYAVADV [MYO9A_Y216]", "property": "phosphorylation enrichment", "assay.result": 0.469}
{"record.sequence": "CTTIHYNYMGN [TP53_Y234_C238G]", "property": "phosphorylation enrichment", "assay.result": 0.532}
{"record.sequence": "SSWPGYVRPLP [HSPB1_Y54]", "property": "phosphorylation enrichment", "assay.result": 0.491}
{"record.sequence": "MNLLGYRHVRS [CHST4_Y359]", "property": "phosphorylation enrichment", "assay.result": 0.612}

# context switch: different sequence, same phosphorylation enrichment
Task: Name the recorded phosphorylation enrichment of the item QAKRKYQEVSK [FES_Y156_A159V] in your answer.
Output: 0.424
